Where these numbers come from: ChEMBL document CHEMBL1944510

Study system: ATP-dependent translocase ABCB1 (Homo sapiens, UniProt P08183)
Sequence (P08183 whole entry): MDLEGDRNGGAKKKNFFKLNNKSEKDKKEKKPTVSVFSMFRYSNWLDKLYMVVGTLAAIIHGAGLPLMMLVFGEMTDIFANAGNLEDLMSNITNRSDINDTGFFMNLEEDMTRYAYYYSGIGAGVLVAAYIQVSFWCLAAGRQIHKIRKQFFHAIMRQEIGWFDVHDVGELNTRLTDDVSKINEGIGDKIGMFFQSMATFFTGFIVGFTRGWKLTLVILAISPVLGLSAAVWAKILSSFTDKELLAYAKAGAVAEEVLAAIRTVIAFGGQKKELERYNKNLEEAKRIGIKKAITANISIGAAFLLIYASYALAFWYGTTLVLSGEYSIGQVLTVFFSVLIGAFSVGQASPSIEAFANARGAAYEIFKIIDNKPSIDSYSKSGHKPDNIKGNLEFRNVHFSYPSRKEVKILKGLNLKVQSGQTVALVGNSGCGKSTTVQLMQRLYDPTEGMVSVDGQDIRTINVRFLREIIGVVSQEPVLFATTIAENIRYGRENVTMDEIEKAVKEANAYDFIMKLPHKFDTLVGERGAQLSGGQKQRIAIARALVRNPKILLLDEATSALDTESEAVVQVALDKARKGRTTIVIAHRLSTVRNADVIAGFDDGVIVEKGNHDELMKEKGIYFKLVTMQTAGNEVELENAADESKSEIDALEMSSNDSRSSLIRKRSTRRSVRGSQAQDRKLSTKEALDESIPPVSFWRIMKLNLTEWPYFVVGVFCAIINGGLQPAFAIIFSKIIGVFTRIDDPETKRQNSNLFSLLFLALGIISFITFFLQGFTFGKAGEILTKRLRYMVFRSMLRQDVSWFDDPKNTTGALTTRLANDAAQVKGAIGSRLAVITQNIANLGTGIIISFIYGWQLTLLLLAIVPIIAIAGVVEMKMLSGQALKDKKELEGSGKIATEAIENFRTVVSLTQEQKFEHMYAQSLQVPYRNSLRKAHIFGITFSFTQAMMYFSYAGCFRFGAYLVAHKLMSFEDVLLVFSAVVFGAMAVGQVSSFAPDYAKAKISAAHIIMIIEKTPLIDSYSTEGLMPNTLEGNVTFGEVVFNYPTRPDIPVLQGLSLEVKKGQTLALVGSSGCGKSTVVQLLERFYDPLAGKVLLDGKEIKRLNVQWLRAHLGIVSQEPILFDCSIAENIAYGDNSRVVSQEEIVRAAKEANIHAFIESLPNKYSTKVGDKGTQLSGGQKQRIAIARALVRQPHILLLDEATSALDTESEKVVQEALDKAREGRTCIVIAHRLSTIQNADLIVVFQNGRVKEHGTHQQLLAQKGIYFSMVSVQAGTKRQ
Test details: Inhibition of human MDR1 expressed in MDCK cells assessed as calcein AM accumulation after 30 mins by fluorescence assay
Type: cell-based
Experimental parameters: read-out: IC50
Attribute: IC50
Measured attribute: IC50 (µM)

INSERT INTO measurements (structure_notation, measured_attribute, censoring_sign, readout_number) VALUES
  ('O=C(Nc1ccc(-c2ccccc2)cc1[N+](=O)[O-])c1cc(O)c(O)c(O)c1', 'IC50', '>', 100),
  ('COc1cc(C(=O)Nc2ccc(-c3ccccc3)cc2N)cc(O)c1O', 'IC50', '>', 100),
  ('COc1cc(C(=O)Nc2ccc(-c3ccc[n+](C)c3)cc2[N+](=O)[O-])cc(OC)c1OC', 'IC50', '=', 34),
  ('COc1cc(C(=O)Nc2ccc(-c3ccccc3)cc2F)cc(OC)c1OC', 'IC50', '=', 1.4);
